Reported ratio of amounts bound (Z=Y/X) values follow for various binders
Molecular target: T1, CD3 epsilon homodimer protein (UniProt P07766 23-126)
T1 construct: also called CD3 (CD3 epsilon)
T1 sequence (P07766 23-126): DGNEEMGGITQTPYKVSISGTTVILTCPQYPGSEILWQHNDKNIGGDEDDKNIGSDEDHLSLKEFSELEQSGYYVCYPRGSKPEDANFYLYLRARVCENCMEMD
Test: SPR Biacore T200, CD3e homodimer on chip, vs unaltered GLS3000 antibody
Give only the figure.

Please review the entries below; each comes with its answer.
binder="GLS3000 S25E (antibody, name in Kabat numbering, V domains shown, one-arm IgG as m2) VH: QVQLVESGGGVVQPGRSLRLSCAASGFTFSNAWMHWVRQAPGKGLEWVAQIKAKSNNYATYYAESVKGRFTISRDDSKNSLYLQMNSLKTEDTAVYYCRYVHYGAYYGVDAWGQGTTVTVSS VL: DIVMTQSPLSLPVTPGEPASISCRESQSLVHSNRNTYLHWYQQKPGQAPRLLIYKVSNRFSGVPDRFSGSGSGTDFTLKISRVEAEDVGVYYCGQGTQVPYTFGQGTKLEIK" testreadout="ratio of amounts bound (Z=Y/X)" quantitativereadout=0.21
binder="GLS3000 N30D (antibody, name in Kabat numbering, V domains shown, one-arm IgG as m2) VH: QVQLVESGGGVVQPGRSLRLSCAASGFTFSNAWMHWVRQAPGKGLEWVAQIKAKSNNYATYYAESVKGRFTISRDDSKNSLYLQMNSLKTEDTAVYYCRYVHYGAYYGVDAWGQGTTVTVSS VL: DIVMTQSPLSLPVTPGEPASISCRSSQSLVHSNRDTYLHWYQQKPGQAPRLLIYKVSNRFSGVPDRFSGSGSGTDFTLKISRVEAEDVGVYYCGQGTQVPYTFGQGTKLEIK" testreadout="ratio of amounts bound (Z=Y/X)" quantitativereadout=0.34
binder="GLS3000 T92P (antibody, name in Kabat numbering, V domains shown, one-arm IgG as m2) VH: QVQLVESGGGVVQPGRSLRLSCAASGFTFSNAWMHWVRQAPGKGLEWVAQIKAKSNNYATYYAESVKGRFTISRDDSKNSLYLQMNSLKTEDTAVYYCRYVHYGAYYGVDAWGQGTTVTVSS VL: DIVMTQSPLSLPVTPGEPASISCRSSQSLVHSNRNTYLHWYQQKPGQAPRLLIYKVSNRFSGVPDRFSGSGSGTDFTLKISRVEAEDVGVYYCGQGPQVPYTFGQGTKLEIK" testreadout="ratio of amounts bound (Z=Y/X)" quantitativereadout=0.26

*Q* Param item = GLS3000 S52Q (antibody, name in Kabat numbering, V domains shown, one-arm IgG as m2) VH: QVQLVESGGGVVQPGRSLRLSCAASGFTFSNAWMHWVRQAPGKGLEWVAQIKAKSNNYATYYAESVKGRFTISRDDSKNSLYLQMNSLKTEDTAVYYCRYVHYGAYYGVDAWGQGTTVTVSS VL: DIVMTQSPLSLPVTPGEPASISCRSSQSLVHSNRNTYLHWYQQKPGQAPRLLIYKVQNRFSGVPDRFSGSGSGTDFTLKISRVEAEDVGVYYCGQGTQVPYTFGQGTKLEIK ; retrieve measured ratio of amounts bound (Z=Y/X).
*A* 1.05

*Q* Fill blank: measured ratio of amounts bound (Z=Y/X) of the binder GLS3000 N30Q (antibody, name in Kabat numbering, V domains shown, one-arm IgG as m2) VH: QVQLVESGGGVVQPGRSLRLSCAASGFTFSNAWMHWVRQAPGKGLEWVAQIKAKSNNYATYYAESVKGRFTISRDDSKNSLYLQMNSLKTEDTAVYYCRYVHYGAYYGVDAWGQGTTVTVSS VL: DIVMTQSPLSLPVTPGEPASISCRSSQSLVHSNRQTYLHWYQQKPGQAPRLLIYKVSNRFSGVPDRFSGSGSGTDFTLKISRVEAEDVGVYYCGQGTQVPYTFGQGTKLEIK is ____.
*A* 0.87
